molecular target: Neu5Ac(a2-3)Gal(b1-4)[Fuc(a1-3)]GlcNAc(b1-3)Gal; assay: glycan array binding signal (z-score within array); higher = stronger binding; settings: glycan notation: IUPAC condensed, linker removed
The full list was thinned out, with the strongest signals kept by preference.
Quantity Measured: glycan array binding signal (z-score)
Number only, no unit.

Looking up EULS2 M3 (Oryza sativa) (protein) MVYCRANPNYAMTARNGAVVLAPANPKDEYQHWIKDMRWSTSIKDEEGYPAFALVNKATGQAIKHSLGQSHPVRLVPYNPEVMDESVLWTESRDVGNGFRCIRMVNNIYLNFDAFHGDKYHGGVRDGTDIVLWKLCEGDSLRWKIQPYYILEQKLISEEDLNSAVDHHHHHH , I see its glycan array binding signal (z-score) listed as 0.557

Looking up CCL2 (Coprinopsis cinerea), B3GA02 (protein) MDSPAVTLSAGNYIIYNRVLSPRGEKLALTYPGRQRTPVTVSPLDGSSEQAWILRSYDSNSNTWTISPVGSPNSQIGWGAGNVPVVLPPNNYVWTLTLTSGGYNIQDGKRTVSWSLNNATAGEEVSIGADATFSGRWVIEKV , I see its glycan array binding signal (z-score) listed as 5.39

Looking up S100A12 (Homo sapiens), P80511 (protein) MTKLEEHLEGIVNIFHQYSVRKGHFDTLSKGELKQLLTKELANTIKNIKDKAVIDEIFQGLDANQDEQVDFQEFISLVAIALKAAHYHTHKE , I see its glycan array binding signal (z-score) listed as -0.943
